All values here come from ChEMBL document CHEMBL1147642.

Tested on: Staphylococcus aureus
Test: Minimum inhibitory activity against Staphylococcus aureus ATCC 6538P
Format: functional
Recorded MIC for the following molecules

Req: Would you kindly share the measured MIC for CC[C@H]1OC(=O)[C@H](C)[C@@H](OC(=O)N2C(=O)OC[C@@H]2C)[C@H](C)[C@@H](OC2O[C@H](C)C[C@H](N(C)C3CCCC3)[C@H]2O)[C@@](C)(OC)C[C@@H](C)C(=O)[C@H](C)[C@H]2N(CCc3ccc(Cl)cc3)C(=O)O[C@]12C (some centres not stated) ?
Resp: > 100 µg/mL

Req: Can you look up the measured MIC of CC[C@H]1OC(=O)[C@H](C)[C@@H](OC2C[C@@](C)(OC)[C@@H](O)[C@H](C)O2)[C@H](C)[C@@H](OC2O[C@H](C)C[C@H](N(C)C3CCCC3)[C@H]2O)[C@@](C)(OC)C[C@@H](C)C(=O)[C@H](C)[C@H]2N(CCc3ccc(Cl)cc3)C(=O)O[C@]12C (some centres not stated) for me?
Resp: 25 µg/mL

Req: What measured MIC goes with CC[C@H]1OC(=O)[C@H](C)[C@@H](OC2C[C@@](C)(OC)[C@@H](O)[C@H](C)O2)[C@H](C)[C@@H](OC2O[C@H](C)C[C@H](N(C)C(C)C)[C@H]2O)[C@@](C)(OC)C[C@@H](C)C(=O)[C@H](C)[C@H]2N(CCc3ccc(Cl)cc3)C(=O)O[C@]12C (some centres not stated) ?
Resp: 1.56 µg/mL
